Binary classification by melting point, with 90 °C as an inclusive lower bound for y; all other cases are n.

compound: Cc1cccc(N)c1C(=O)O
category: y
//
compound: CCOC(=O)N(c1ccccc1)c1ccccc1
category: n
//
compound: C[Si]1(C)O[Si](C)(C)O[Si](C)(C)O[Si](C)(C)O[Si](C)(C)O[Si](C)(C)O[Si](C)(C)O1
category: n
//
compound: CC12CCC3C(CCC4CC=CCC43C)C1CCC2=O (stereo not given)
category: y
//
compound: N#CC1(c2ccccc2)Cc2ccccc2C(=O)O1 (stereo not given)
category: y
//
compound: O=C(O)CCCCCC(=O)c1ccccc1
category: n
//
compound: CSc1nc(Cl)c(-c2ccccc2)c(Cl)n1
category: y
//
compound: CC(C)(C)N(NC(=O)c1ccccc1)C(=O)c1ccccc1[N+](=O)[O-]
category: y
//
compound: OCc1ccc(OCc2ccccc2)cc1
category: n
//
compound: c1ccc2c(c1)NC1(CCCCC1)O2
category: y
//
compound: Nc1ncnc2[nH]ncc12
category: y
//
compound: CC12CCC3C(CC=C4CC(Cl)CCC43C)C1CCC2=O (stereo not given)
category: y
//
compound: NC(=O)c1ccc(C(N)=O)cc1
category: y
//
compound: CCOC(=O)NC(=S)Nc1sc2c(c1C(=O)OCC)CCN(Cc1ccccc1)C2
category: y
//
compound: COc1ccccc1-c1nnc2n1CN(c1ccccc1)CS2
category: y
//
compound: COc1ccc(C(=O)c2noc(-c3ccc([N+](=O)[O-])cc3)c2S(=O)(=O)c2ccccc2)cc1
category: y
//
compound: Cc1c(N)cc([N+](=O)[O-])cc1[N+](=O)[O-]
category: y
//
compound: Oc1ccc(C2CCCCC2)cc1Cl
category: n
//
compound: CC(C)(C)N(NC(=O)c1ccccc1)C(=O)c1c(F)cccc1Cl
category: y
//
compound: O=C(c1ccc(Br)cc1)c1[nH]c2c(c1O)C(c1ccc(Br)cc1)c1c(c3ccccc3oc1=O)O2 (stereo not given)
category: y
//
compound: CC1=C(O)C(=O)C(C(C)C)CC1 (stereo not given)
category: n
//
compound: CSc1nnc(C(C)(C)C)c(=O)n1N
category: y
//
compound: O=S1(=O)CCCCO1
category: n
//
compound: CCCCCCCCCCCCCC(=O)OC(C)C
category: n
//
compound: Clc1cccc2cccnc12
category: n
//
compound: O=C1c2ccc(O)cc2C(=O)c2ccc(O)cc21
category: y
//
compound: COc1ccc(C(=O)c2noc(-c3ccc(C)cc3)c2S(=O)(=O)c2ccccc2)cc1
category: y
//
compound: COc1ccc(C=O)cc1O
category: y
//
compound: Clc1cc2c(cc1Cl)Oc1cc(Br)c(Br)cc1O2
category: y
//
compound: CCCCCCCOc1ccc(-c2ccc(C#N)cc2)cc1
category: n
//
compound: O=C(CCCCl)c1ccc(Cl)cc1
category: n

* * *

melting point overview

compound: O=[N+]([O-])c1ccc(N/N=C/c2ccccc2)c([N+](=O)[O-])c1
melting point, °C: 240
--
compound: O=C(O)C(=CN(O)c1ccccc1)c1ccccc1
melting point, °C: 75
--
compound: O=C(C(=S)Nc1ccc(I)cc1)c1ccccc1
melting point, °C: 139
--
compound: CCOCCOC(=O)C=Cc1ccc(OC)cc1
melting point, °C: -25
--
compound: CC(C)C(Nc1ccc(C(F)(F)F)cc1Cl)C(=O)OC(C#N)c1cccc(Oc2ccccc2)c1 (configuration not stated)
melting point, °C: 25
--
compound: COc1ccccc1C
melting point, °C: -34.1
--
compound: O=C(Cl)c1ccc(-c2ccccc2)cc1
melting point, °C: 113
--
compound: COC(=O)c1ccc(C(=O)OC)c(F)c1
melting point, °C: 82
